assay notes: Cytotoxicity / ATP level in PC-3 cells, 5-day treatment
protocol conditions: human, PC-3 cells
Hi there, I'd appreciate the recorded CC50 at 5 days for every entry that follows.
Numbers only, in µM.

- smiles input: "O=C(N[C@H](CO)[C@H](O)c1ccc([N+](=O)[O-])cc1)C(Cl)Cl"
  CC50 at 5 days / µM: 16

Each molecule below has a reported value. Please supply its CC50 at 5 days.
1. COc1ccc(C[C@H](N)C(=O)N[C@H]2[C@@H](O)[C@H](n3cnc4c(N(C)C)ncnc43)O[C@@H]2CO)cc1
2. C[C@@]1(O)[C@H](O)[C@@H](CO)O[C@H]1n1ccc(N)nc1=O
3. [N-]=[N+]=N[C@]1(CO)O[C@@H](n2ccc(N)nc2=O)[C@H](O)[C@@H]1O

Result:
1. 0.22
2. 49
3. 30
